Provenance of the data: PubChem BioAssay AID1671190

Target: Polyunsaturated fatty acid lipoxygenase ALOX12 (Homo sapiens) (UniProt P18054)
Sequence (P18054 whole entry, looked up): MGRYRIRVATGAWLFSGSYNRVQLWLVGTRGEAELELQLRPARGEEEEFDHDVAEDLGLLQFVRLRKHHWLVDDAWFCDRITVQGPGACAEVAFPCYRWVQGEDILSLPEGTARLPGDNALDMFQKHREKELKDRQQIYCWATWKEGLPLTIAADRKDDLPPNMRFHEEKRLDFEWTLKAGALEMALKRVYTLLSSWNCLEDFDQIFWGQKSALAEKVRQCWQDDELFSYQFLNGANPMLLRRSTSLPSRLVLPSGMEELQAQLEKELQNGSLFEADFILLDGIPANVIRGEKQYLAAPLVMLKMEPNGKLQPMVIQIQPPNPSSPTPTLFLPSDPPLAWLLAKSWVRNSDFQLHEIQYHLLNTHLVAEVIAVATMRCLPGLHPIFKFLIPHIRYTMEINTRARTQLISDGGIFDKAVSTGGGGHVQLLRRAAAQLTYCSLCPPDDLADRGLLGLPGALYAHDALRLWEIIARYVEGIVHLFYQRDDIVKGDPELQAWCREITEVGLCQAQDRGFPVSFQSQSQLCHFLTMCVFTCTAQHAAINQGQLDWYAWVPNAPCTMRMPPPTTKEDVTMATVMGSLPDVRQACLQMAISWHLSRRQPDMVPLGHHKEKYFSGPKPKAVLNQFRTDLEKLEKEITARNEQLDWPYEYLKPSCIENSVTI
Assay: Primary qHTS assay for inhibitors of human arachidonate 12S-lipoxygenase (ALOX12): Round 2
Details: purified 12hLO, xylenol orange hydroperoxide absorbance; series mostly up to 108 µM
Out of some 580,000 compounds screened, about 6,100 (1.1%) were called active. Inconclusive results (about 15%) are left out. The call rests on the fitted dose curve; in most records, active means well fitted inhibition curve with a large enough effect; inconclusive means small, poorly fitted or top-dose-only effect, or another doubt; inactive means no such curve, though single readings can be large or run the other way. The full list was thinned out, with actives kept by preference.
Pick from TRUE = active, FALSE = inactive when you respond.

Examples from the recorded data:
O=C(Cc1cccc(Cl)c1)N1CCC(c2nn(-c3ccc(Cl)cc3)c(=O)[nH]2)CC1
TRUE
CCCCCCCC[n+]1cccc(C(=O)N2c3c(nc(N)[nH]c3=O)NC(C)C2C)c1 (configuration not stated)
TRUE
CN(C)S(=O)(=O)c1ccc(C(=O)NCCN=C2NS(=O)(=O)c3ccccc32)cc1
FALSE
CC(C)c1ccc(C(=O)N/N=C/CCc2ccccc2)cc1
FALSE
CCc1cccc(C)c1NC(=O)Cn1ccn(-c2ccccc2)c(=O)c1=O
FALSE
Cc1ccc(S(=O)(=O)N2CCOCC2)cc1NC(=O)c1ccncc1
FALSE

Incoming: Lab log entry: Cc1ccccc1CNC(=O)c1cc(-c2ccncc2)nc2ccccc12 — outcome as called in the assay?
Outgoing: FALSE

###

Biological target: Polyunsaturated fatty acid lipoxygenase ALOX12 (Homo sapiens)
Experiment: Primary qHTS assay for inhibitors of human arachidonate 12S-lipoxygenase (ALOX12): Round 2
Details: purified 12hLO, xylenol orange hydroperoxide absorbance; series mostly up to 108 µM
Screen size: about 580,000 compounds; about 6,100 (1.1%) were called active. Not shown: some 15% with an inconclusive outcome. Calls follow the shape of the dose curve; as a rule, active = well fitted inhibition curve with a large enough effect; inconclusive = small, poorly fitted or top-dose-only effect, or another doubt; inactive = no such curve, though single readings can be large or run the other way. The sample as a whole holds a higher share of actives than the screen did.
Mark one answer only. Choices: active, inactive

Example entries and their recorded answers appear below.
CCc1ccc(-c2nc(-c3nc(-c4cccs4)cs3)sc2C)cc1
inactive
O=C(CN1C(=O)CC2(CCCCC2)C1=O)c1c[nH]c2ccccc12
inactive
O=[N+]([O-])c1ccc(Oc2ccc3ccncc3c2)cc1C(F)(F)F
inactive
OCCCNC(=S)Nc1ccccc1F
inactive
O=C(Nc1ccc(S(=O)(=O)Nc2ncccn2)cc1)C12CC3CC(CC(C3)C1)C2
inactive

Incoming: Dear all, I need the recorded test outcome for CC(C)(C)C1C/C(=C/c2ccco2)C(=O)/C(=C/c2ccco2)C1 (configuration not stated) , thank you.
Outgoing: active

Incoming: Please do the same for O=C(CSc1ncnc2sccc12)c1ccc2c(c1)OCCCO2 as well.
Outgoing: inactive

Incoming: Could you do the same for CCCCN1CC(C(=O)Nc2ccc(C(=O)Nc3ccccc3F)cc2)CC1=O (configuration not stated) , please?
Outgoing: inactive

Incoming: Moving on to O=C(CCC1CCCCC1)NC(N1CCCCC1)(C(F)(F)F)C(F)(F)F
Outgoing: inactive

Incoming: What do you get for COc1nc(NCc2ccc(Cl)cc2)nc(OC)n1 ?
Outgoing: inactive

Incoming: // same read-out, input: O=C(CN(Cc1ccccc1)C(=O)c1ccc2c(c1)OCCO2)NCc1ccc2c(c1)OCO2
Outgoing: inactive

Incoming: Request: COc1ccc(NC(=O)O[C@@H]2CO[C@H]3[C@@H]2OC[C@@H]3NC(=S)Nc2cccc3ccccc23)cc1
Outgoing: inactive

Incoming: Would you kindly repeat that for Cc1cccc(NC(=O)c2ccc3nc(C(C)C)oc3c2)c1C ?
Outgoing: inactive

Incoming: What do you have for CC1=C[C@@H](CNC2CCN(C)CC2)[C@H](C(C)C)C[C@H]1Cc1nc2ccccc2[nH]1 ?
Outgoing: inactive

Incoming: Moving on to the next compound: O=C(Nc1ccc(S(=O)(=O)Nc2ncccn2)cc1)c1cncc(Br)c1
Outgoing: inactive

###

Molecular target: Polyunsaturated fatty acid lipoxygenase ALOX12 (Homo sapiens) (UniProt P18054)
Test: Primary qHTS assay for inhibitors of human arachidonate 12S-lipoxygenase (ALOX12): Round 2; further: potency means the concentration at half of the fitted maximal effect
Conditions: purified 12hLO, xylenol orange hydroperoxide absorbance; series mostly up to 108 µM
The whole screen tested about 580,000 compounds, of which about 6,100 (1.1%) were called active. About 15% were inconclusive and are not listed. For the sample, actives were picked, then their nearest neighbours and some compounds at random.
Metric Name: Potency

O=C(Oc1ccccc1Cl)c1ccc(N2CCOCC2)c([N+](=O)[O-])c1
inactive
Cc1ccccc1Nc1nc(C(=O)NCCCN2CCOCC2)cs1
inactive
COc1ccc(OC)c(NC(=O)/C=C/c2ccc(C)o2)c1
inactive
CN1CCCN(S(=O)(=O)c2ccc3c(c2)CCC3)c2ccccc21
inactive
CCOc1ccc(C(=O)NC(=S)Nc2ccc(N3CCOCC3)c(Cl)c2)cc1[N+](=O)[O-]
14.1 µM (active)

Next compound, Potency to be filled in.
Incoming: Query (compound): CCCNC(=O)C(C)OC(=O)c1cc(=O)[nH]c2ccccc12 (stereo unspecified) ; field requested: Potency
Outgoing: inactive

###

Biological target: Polyunsaturated fatty acid lipoxygenase ALOX12 (Homo sapiens)
Assay: Primary qHTS assay for inhibitors of human arachidonate 12S-lipoxygenase (ALOX12): Round 2; further: potency means the concentration at half of the fitted maximal effect
Conditions: purified 12hLO, xylenol orange hydroperoxide absorbance; series mostly up to 108 µM
About 6,100 (1.1%) of roughly 580,000 compounds were called active. Roughly 15% stayed inconclusive and do not appear here. The list comes from a sample in which actives are over-represented; it also holds close analogues and randomly drawn compounds.
Metric Name: Potency

CC(C)CCNC(=O)COC(=O)c1cc(-c2ccco2)nc2ccccc12
6.31 µM (active)
COc1ccccc1N1CCN(C(=O)C2CCN(S(=O)(=O)c3c(C)noc3/C=C/c3ccc(C)cc3)CC2)CC1
inactive
COC(=O)c1ccc2c(c1)nc1n2[C@@H](CNCc2cccc(OC)n2)COC1
inactive
CCOc1cc2cc(C(=O)c3cc(C)ccc3O)cnc2cc1OCC
inactive

###

Molecular target: Polyunsaturated fatty acid lipoxygenase ALOX12 (Homo sapiens) (UniProt P18054)
Assay: Primary qHTS assay for inhibitors of human arachidonate 12S-lipoxygenase (ALOX12): Round 2
Conditions: purified 12hLO, xylenol orange hydroperoxide absorbance; series mostly up to 108 µM
In all, about 580,000 compounds went through this assay and about 6,100 (1.1%) were called active. Another 15% or so got no clear call; they are omitted. Calls come from the whole dose curve; as a rule, active = well fitted inhibition curve with a large enough effect; inconclusive = small, poorly fitted or top-dose-only effect, or another doubt; inactive = no such curve, though single readings can be large or run the other way. What follows is part of a selection rich in actives, with near analogues and random picks from the rest.
Pick one: y (active), n (inactive)

Previously resolved entries follow.
O=C(COC(=O)c1cc2ccccc2cc1O)Nc1ccc(Cl)cc1C(F)(F)F
n
COC(=O)CC(NC(=O)c1ccc2c(c1)OCCO2)c1ccc(F)cc1 (stereo not given)
n
CCOC(=O)c1cn[nH]c1S(=O)(=O)N1CCCC(C)C1 (stereo not given)
y

Incoming: Tell me the assay call for CSc1ccccc1NC(=O)C(C)Nc1ccc2c(c1)CCN2C(C)=O (stereo not given) please.
Outgoing: n

Incoming: Another molecule to check: Cc1ccc(C(=O)N2CCC3(CC2)NC(=O)N(Cc2ccc(F)cc2)C3=O)cc1
Outgoing: n

###

Molecular target: Polyunsaturated fatty acid lipoxygenase ALOX12 (Homo sapiens) (UniProt P18054)
Assay: Primary qHTS assay for inhibitors of human arachidonate 12S-lipoxygenase (ALOX12): Round 2
Settings: purified 12hLO, xylenol orange hydroperoxide absorbance; series mostly up to 108 µM
Among all 580,000 compounds or so, about 6,100 (1.1%) were called active. Roughly 15% stayed inconclusive and do not appear here. Calls follow the shape of the dose curve; as a rule, active = well fitted inhibition curve with a large enough effect; inconclusive = small, poorly fitted or top-dose-only effect, or another doubt; inactive = no such curve, though single readings can be large or run the other way. The entries come from a sample that favours actives as a whole.
Please state which outcome applies, choosing from active, inactive

The following compounds have reported results that may help.
COC(=O)COc1ccc2c(=O)c(Oc3ccccc3Br)coc2c1
inactive
COc1ccc(C(=O)NCC[N+](C)(C)C)cc1
active
O=C(O)/C=C/c1ccc(Cl)cc1Cl
inactive
COc1ccccc1Oc1coc2cc(OCc3ccc(Cl)cc3)ccc2c1=O
inactive
Cc1ccsc1C1C(C#N)=C(N)OC2=C1C(=O)CC(C)C2 (stereo not drawn)
inactive
CCc1nc(Nc2ccc3nccnc3c2)c2oc3ccccc3c2n1
inactive
COc1ccccc1-c1nc(N2CCN(C)CC2)c2ccccc2n1
active
CC(=O)N1CCC(C(=O)N(C)CC(=O)Nc2ccccc2C(F)(F)F)CC1
inactive

Incoming: Returns: the outcome recorded for COc1ccc(C(=O)NCCSc2ccccc2C)cc1 in this assay.
Outgoing: inactive

Incoming: Repeat with O=C(O)/C=C/c1ccccc1Cl
Outgoing: inactive

Incoming: And COc1ccc(N2CCN(c3nc(-c4ccccc4F)nc4ccccc34)CC2)cc1 ?
Outgoing: inactive

Incoming: Now consider CCOc1ccccc1N1CCN(c2nc(-c3cccnc3)nc3ccccc23)CC1 and answer again.
Outgoing: inactive

Incoming: Also check Cc1ccsc1C1C(C#N)=C(N)OC2=C1C(=O)CC(C)(C)C2 (stereo not drawn)
Outgoing: inactive

###

Target: Polyunsaturated fatty acid lipoxygenase ALOX12 (Homo sapiens)
Assay: Primary qHTS assay for inhibitors of human arachidonate 12S-lipoxygenase (ALOX12): Round 2
Conditions: purified 12hLO, xylenol orange hydroperoxide absorbance; series mostly up to 108 µM
Source text: Assay Provider: Theodore R. Holman Ph.D. University of California, Santa Cruz, California Human lipoxygenase 12hLO is a member of the closely related lipoxygenase family of enzymes which catalyze the site-specific oxidation of arachidonic acid to various hormone precursor molecules and as such is a candidate for drug development in a variety of disease areas, such as cancer and inflammation. […] The Fe (III)-XO complex is characterized with red-shifted absorbance at 560 nm. […]
Out of some 580,000 compounds screened, about 6,100 (1.1%) were called active. About 15% were inconclusive and are not listed. Calls come from the whole dose curve; as a rule, active = well fitted inhibition curve with a large enough effect; inconclusive = small, poorly fitted or top-dose-only effect, or another doubt; inactive = no such curve, though single readings can be large or run the other way. The entries come from a sample that favours actives as a whole.
Would you mind answering with one of these outcomes? YES for active, NO for inactive

O=C(OCc1cc(Cl)c2c(c1)OCCCO2)C12CC3CC(CC(Cl)(C3)C1)C2
NO
COc1cccc(NC(=O)c2ccc3c(c2)NC(C)(COc2ccccc2)CO3)c1 (configuration not stated)
NO
O=C(NCCCNC(=O)c1nc2ccccc2c(=O)[nH]1)c1cccnc1
NO

API: the following record is the query input.
Incoming: What did this assay record as the result for C=CCOc1cccc(C2NC(=O)c3ccccc3O2)c1 (configuration not stated) ?
Outgoing: NO
